Target under test: human PD-1/PD-L1 binding (Homo sapiens, UniProt Q9NZQ7)
Construct: PD-L1-His protein (19 to 238 amino acids) (Abcam #ab167713); purchased Abcam (PD-L1-His); R&D (PD-1-Fc) ab167713; 1086-PD
Sequence (Q9NZQ7 19-238): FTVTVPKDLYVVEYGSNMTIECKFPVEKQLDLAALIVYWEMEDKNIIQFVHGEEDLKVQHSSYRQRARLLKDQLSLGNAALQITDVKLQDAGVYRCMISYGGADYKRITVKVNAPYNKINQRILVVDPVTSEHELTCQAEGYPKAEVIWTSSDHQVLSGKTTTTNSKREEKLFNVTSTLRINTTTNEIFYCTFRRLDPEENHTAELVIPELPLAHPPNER
Assay: Inhibition of human PD-1/PD-L1 binding (TR-FRET/HTRF)
Condition label: TR-FRET, PD-L1-His and PD-1-Fc; read-out: PD-1/PD-L1 binding IC50
Readings of IC50 for the listed molecules
Measured attribute: IC50 (nM)

> print(dat)
                    structure.smiles.string                         target.under.test  measured.attribute  quantitative.readout
1  COc1nc(-c2cccc(-c3cccc(NC(=O)c4nc5c(n4C)CCN(C)C5)c3Cl)c2Cl)ccc1CN1CC2(CC(O)C2)C1  human PD-1/PD-L1 binding (Homo sapiens, UniProt Q9NZQ7)                IC50                   5.3
2  COc1nc(-c2cccc(-c3cccc(NC(=O)c4nc5c(n4C)CCN(C)C5)c3Cl)c2Cl)cnc1CN1CC(NC(C)=O)C1  human PD-1/PD-L1 binding (Homo sapiens, UniProt Q9NZQ7)                IC50                   3.7
3  COc1cc(C(=O)Nc2cccc(-c3cccc(NC(=O)c4nc5c(n4C)CCN(C)C5)c3Cl)c2C)ncc1CNCCO  human PD-1/PD-L1 binding (Homo sapiens, UniProt Q9NZQ7)                IC50                   1.5
